The reported measurements were obtained from ChEMBL document CHEMBL1201862.

# System: SK-OV-3
# run_description: NCI tumour cell line growth inhibition, 48 h
Activity calls are given as the source filed them. No stated cut-off is given here; in the data, active = GI50 up to about 1.1 µM and inactive = higher.
Reported GI50 by item:
reported_property: GI50

compound: O=C(O)c1nn(-c2ccc(Cl)cc2)c2c1C(=O)c1ccccc1C2=O
reported_value: > 100 µM (inactive)
--
compound: Oc1cc(-c2ccc3ccccc3c2)nc2ncccc12
reported_value: 19.6 µM (inactive)
--
compound: COC1CC2C3/C(=N/Nc4ccc([N+](=O)[O-])cc4[N+](=O)[O-])CCC2(C)C3C1 (stereo not given)
reported_value: > 10 µM (inactive)
--
compound: C/C(=N\NC(=S)Nc1ccc(Cl)cc1)c1nc2cccnc2[nH]1
reported_value: 4.31 µM (inactive)
--
compound: CCOC(=O)CCC(NC(=O)c1ccc(CNc2nc3ccccc3nc2C(=O)OCC)cc1)C(=O)OCC (stereo not given)
reported_value: > 100 µM (inactive)
--
compound: Cc1ccc2c(c1)C(=O)c1[nH]c3ccc(F)cc3c1CO2
reported_value: 15.1 µM (inactive)
--
compound: CC(C)(C)C(=O)C(C(=O)C(C)(C)C)C(=O)C(C)(C)C
reported_value: 43.5 µM (inactive)
--
compound: O=C(Nc1cccc(Cl)c1)C(=O)C(C(=O)c1ccc2ccccc2c1)C1OC(=O)c2ccccc21 (stereo not given)
reported_value: 24.6 µM (inactive)
--
compound: Cn1c(=O)c2[nH]c(Nc3cccc(Cl)c3)nc2n(C)c1=O
reported_value: 6.17 µM (inactive)
--
compound: CCN1CC2(C)CCC(OC)C34C5CC6CCC(O)(C5C(=O)O6)C(C(O)C23)C14 (stereo not given)
reported_value: > 100 µM (inactive)
